These data points were gathered from paper PMC8155809.

# subjectOfTest: human TREK-2 (Homo sapiens, UniProt P57789)
# Construct: expressed in transfected cells; host or cells: Xenopus laevis oocytes injected with in vitro transcribed mRNA (pFAW vector)
# assayProtocol: Macroscopic TREK-2 currents in giant excised patches from Xenopus oocytes
# Format: cell-based
# experimentalConditions: giant inside-out patches; physiological pH 7.4; NFx alone; read-out: IC50 for channel inhibition
pIC50: −log10 of the molar value.
observationType: pIC50

Exam item: Given the compound NCCC(Oc1ccc(C(F)(F)F)cc1)c1ccccc1 (stereo not shown) [NFx, norfluoxetine] , what is its reported pIC50?
Marked response: ~5.52

###

# subjectOfTest: human TREK-2 (Homo sapiens, UniProt P57789)
# Construct: expressed in transfected cells; host or cells: Xenopus laevis oocytes injected with in vitro transcribed mRNA (pFAW vector)
# Sequence (P57789 1-543 isoform P57789-4): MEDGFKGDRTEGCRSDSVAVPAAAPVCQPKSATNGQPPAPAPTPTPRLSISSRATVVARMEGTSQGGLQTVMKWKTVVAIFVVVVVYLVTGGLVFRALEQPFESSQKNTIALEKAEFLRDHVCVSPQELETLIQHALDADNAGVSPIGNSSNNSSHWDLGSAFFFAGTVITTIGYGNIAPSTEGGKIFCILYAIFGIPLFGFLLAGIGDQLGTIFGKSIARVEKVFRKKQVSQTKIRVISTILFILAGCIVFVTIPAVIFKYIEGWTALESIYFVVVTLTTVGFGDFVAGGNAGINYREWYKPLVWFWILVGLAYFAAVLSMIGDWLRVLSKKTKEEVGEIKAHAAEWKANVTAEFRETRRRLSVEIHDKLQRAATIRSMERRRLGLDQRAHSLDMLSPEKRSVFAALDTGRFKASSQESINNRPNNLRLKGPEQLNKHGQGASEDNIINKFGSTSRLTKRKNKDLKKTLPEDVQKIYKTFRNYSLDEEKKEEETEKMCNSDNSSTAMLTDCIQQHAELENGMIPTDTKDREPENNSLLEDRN
# assayProtocol: Macroscopic TREK-2 currents in giant excised patches from Xenopus oocytes
# Format: cell-based
# experimentalConditions: IC50, NFx inhibition of TREK-2 currents, +40 mV; NFx on its own; Fig. 1E
observationType: pIC50
Lab note: report pIC50 as minus log10 of the concentration in molar units, number only.

Exam item: Given the molecule NCCC(Oc1ccc(C(F)(F)F)cc1)c1ccccc1 (stereo not shown) [NFx, norfluoxetine] , what is its reported pIC50?
Marked response: 5.57

###

# subjectOfTest: human TREK-2 (Homo sapiens)
# Construct: expressed in transfected cells; host or cells: Xenopus laevis oocytes injected with in vitro transcribed mRNA (pFAW vector)
# assayProtocol: Macroscopic TREK-2 currents in giant excised patches from Xenopus oocytes
# Format: cell-based
# experimentalConditions: IC50, NFx inhibition of macroscopic WT TREK-2 currents, 0 mV; Fig. S4
observationType: IC50 (µM)
Enter your answer as a number in µM; do not include the unit.

Exam item: Given the molecule NCCC(Oc1ccc(C(F)(F)F)cc1)c1ccccc1 (stereo not shown) , what is its reported IC50?
Marked response: 4.2
